# SYSTEM: CXCR4 and CD4 co-expressed on cells (MOLM-13, THP-1, MT-4, PBMC; Jurkat CD4 low) (human, UniProt P61073 1-352; P01730 26-458)
# Sequence (P61073 whole entry, chain 1 of 2, other chains not shown): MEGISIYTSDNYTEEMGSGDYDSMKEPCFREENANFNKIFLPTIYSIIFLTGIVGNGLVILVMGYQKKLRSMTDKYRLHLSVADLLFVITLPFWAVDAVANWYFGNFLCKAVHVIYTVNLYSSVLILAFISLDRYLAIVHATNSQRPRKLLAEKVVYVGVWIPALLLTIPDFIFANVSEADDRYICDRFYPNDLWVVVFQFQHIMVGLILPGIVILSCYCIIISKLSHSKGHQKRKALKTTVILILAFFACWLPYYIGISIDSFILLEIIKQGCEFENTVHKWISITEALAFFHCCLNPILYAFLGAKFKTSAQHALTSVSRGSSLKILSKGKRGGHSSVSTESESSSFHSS
# PROCEDURE_TEXT: cell-based or functional assay
TEST_READOUT: IC50, HIV-1 NL4.3 (X4), PBMC

>>> result("03F11-35GS-281F12 (bispecific antibody, also called CD4#8-35GS-CXCR4#2; CD4#8-CXCR4#2) EVQLVESGGGSVQPGGSLTLSCGTSGRTFNVMGWFRQAPGKEREFVAAVRWSSTGIYYTQYADSVKSRFTISRDNAKNTVYLEMNSLKPEDTAVYYCAADTYNSNPARWDGYDFRGQGTQVTVSSGGGGSGGGGSGGGGSGGGGSGGGGSGGGGSGGGGSEVQLVESGGGLVQAGDSLRLSCAASGRAFSRYAMGWFRQAPGKEREFVAAIGWGPSKTNYADSVKGRFTISRDNAKNTVYLQMNTLKPEDTAVYSCAAKFVNTDSTWSRSEMYTYWGQGTQVTVSS")
"23.7 nM"
